Target: Mu-type opioid receptor (Homo sapiens, UniProt P35372)
Sequence (P35372 whole entry): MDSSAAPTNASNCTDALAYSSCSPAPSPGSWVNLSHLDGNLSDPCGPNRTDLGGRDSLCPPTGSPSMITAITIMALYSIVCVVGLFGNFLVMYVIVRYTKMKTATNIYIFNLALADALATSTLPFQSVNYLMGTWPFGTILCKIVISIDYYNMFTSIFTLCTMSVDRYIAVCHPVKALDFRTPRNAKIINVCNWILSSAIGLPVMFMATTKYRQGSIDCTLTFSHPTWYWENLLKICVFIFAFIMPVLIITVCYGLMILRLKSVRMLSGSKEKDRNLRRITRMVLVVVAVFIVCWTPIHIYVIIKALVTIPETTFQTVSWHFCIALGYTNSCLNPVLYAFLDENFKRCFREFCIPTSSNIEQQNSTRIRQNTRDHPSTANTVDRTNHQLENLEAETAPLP
Experiment: Agonist activity at mu-opioid receptor (unknown origin) expressed in HEK293 cells assessed as inhibition of forskolin-induced cAMP accumulation incubated for 15 mins by ELISA relative to control
Assay type: functional, cell-based
Conditions: filed as agonist
Parameter Emax: see the listing below.
Number only, in %; omit the unit.

Examples with their reported Emax follow.
In: Param request: Emax | system Mu-type opioid receptor (Homo sapiens, UniProt P35372) | item `N=C(N)NCCC[C@@H](NC(=O)[C@@H](CCCNC(=N)N)NC(=O)CNC(=O)[C@@H]1CSSC[C@H](NC(=O)[C@@H](N)Cc2ccc(O)cc2)C(=O)N[C@@H](Cc2c[nH]c3ccccc23)C(=O)N[C@@H](Cc2ccc(Cl)cc2)C(=O)N1)C(=O)O`
Out: 80.6

In: Param request: Emax | system Mu-type opioid receptor (Homo sapiens, UniProt P35372) | item `N=C(N)NCCC[C@@H](NC(=O)[C@@H](CCCNC(=N)N)NC(=O)CNC(=O)[C@@H]1CSSC[C@H](NC(=O)[C@@H](N)Cc2ccc(O)cc2)C(=O)N[C@@H](Cc2c[nH]c3ccccc23)C(=O)N[C@@H](Cc2ccccc2)C(=O)N1)C(=O)O`
Out: 77.2

In: Param request: Emax | system Mu-type opioid receptor (Homo sapiens, UniProt P35372) | item `Cc1cc(O)cc(C)c1C[C@H](N)C(=O)N[C@H]1CSSC[C@@H](C(=O)NCC(=O)N[C@H](CCCNC(=N)N)C(=O)N[C@H](CCCNC(=N)N)C(=O)O)NC(=O)[C@H](Cc2ccc(Cl)cc2)NC(=O)[C@H](Cc2c[nH]c3ccccc23)NC1=O`
Out: 87.3

Attention now turns to another entry.
In: Param request: Emax | system Mu-type opioid receptor (Homo sapiens, UniProt P35372) | item `Cc1cc(O)cc(C)c1C[C@H](N)C(=O)N[C@H]1CSSC[C@@H](C(=O)NCC(=O)N[C@H](CCCNC(=N)N)C(=O)N[C@H](CCCNC(=N)N)C(=O)O)NC(=O)[C@H](Cc2ccc(Cl)cc2)NC(=O)[C@H](Cc2ccccc2)NC1=O`
Out: 83.8

---

Target: Delta-type opioid receptor (Rattus norvegicus)
Sequence (P33533 whole entry): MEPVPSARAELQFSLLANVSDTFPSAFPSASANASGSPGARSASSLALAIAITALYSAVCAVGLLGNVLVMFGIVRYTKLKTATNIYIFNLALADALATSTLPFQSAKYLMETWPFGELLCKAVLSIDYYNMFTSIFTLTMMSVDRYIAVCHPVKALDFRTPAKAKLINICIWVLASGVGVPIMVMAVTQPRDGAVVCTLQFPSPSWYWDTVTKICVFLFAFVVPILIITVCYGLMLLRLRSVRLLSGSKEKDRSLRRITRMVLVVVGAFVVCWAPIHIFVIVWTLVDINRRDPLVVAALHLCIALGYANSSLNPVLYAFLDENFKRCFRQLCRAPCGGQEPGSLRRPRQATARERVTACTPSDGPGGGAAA
Assay: Displacement of [3H]DPDPE from DOR in Wistar rat brain membranes measured after 3 hrs by scintillation counting method
pKi: −log10 of the molar value.
value_type: pKi

Examples with their reported pKi follow.
In: Look up pKi of `N=C(N)NCCC[C@@H](NC(=O)[C@@H](CCCNC(=N)N)NC(=O)CNC(=O)[C@@H]1CSSC[C@H](NC(=O)[C@@H](N)Cc2ccc(O)cc2)C(=O)N[C@@H](Cc2c[nH]c3ccccc23)C(=O)N[C@@H](Cc2ccccc2)C(=O)N1)C(=O)O` and report it.
Out: < 5.00

In: Look up pKi of `Cc1cc(O)cc(C)c1C[C@H](N)C(=O)N[C@H]1CSSC[C@@H](C(=O)NCC(=O)N[C@H](CCCNC(=N)N)C(=O)N[C@H](CCCNC(=N)N)C(=O)O)NC(=O)[C@H](Cc2ccc(Cl)cc2)NC(=O)[C@H](Cc2c[nH]c3ccccc23)NC1=O` and report it.
Out: 5.68

In: Look up pKi of `N=C(N)NCCC[C@@H](NC(=O)[C@@H](CCCNC(=N)N)NC(=O)CNC(=O)[C@@H]1CSSC[C@H](NC(=O)[C@@H](N)Cc2ccc(O)cc2)C(=O)N[C@@H](Cc2ccccc2)C(=O)N[C@@H](Cc2ccc(Cl)cc2)C(=O)N1)C(=O)O` and report it.
Out: < 5.00

In: Look up pKi of `Cc1cc(O)cc(C)c1C[C@H](N)C(=O)N[C@H]1CSSC[C@@H](C(=O)NCC(=O)N[C@H](CCCNC(=N)N)C(=O)N[C@H](CCCNC(=N)N)C(=O)O)NC(=O)[C@H](Cc2ccc(Cl)cc2)NC(=O)[C@H](Cc2ccccc2)NC1=O` and report it.
Out: 5.37

In: Look up pKi of `N=C(N)NCCC[C@@H](NC(=O)[C@@H](CCCNC(=N)N)NC(=O)CNC(=O)[C@@H]1CSSC[C@H](NC(=O)[C@@H](N)Cc2ccc(O)cc2)C(=O)N[C@@H](Cc2ccccc2)C(=O)N[C@@H](Cc2ccccc2)C(=O)N1)C(=O)O` and report it.
Out: < 5.00

Attention now turns to another entry.
In: Look up pKi of `N=C(N)NCCC[C@@H](NC(=O)[C@@H](CCCNC(=N)N)NC(=O)CNC(=O)[C@@H]1CSSC[C@H](NC(=O)[C@@H](N)Cc2ccc(O)cc2)C(=O)N[C@@H](Cc2c[nH]c3ccccc23)C(=O)N[C@@H](Cc2ccc(Cl)cc2)C(=O)N1)C(=O)O` and report it.
Out: < 5.00
